- TEST_SYSTEM: hERG potassium ion channel (Homo sapiens)
- Sequence (Q12809 whole entry): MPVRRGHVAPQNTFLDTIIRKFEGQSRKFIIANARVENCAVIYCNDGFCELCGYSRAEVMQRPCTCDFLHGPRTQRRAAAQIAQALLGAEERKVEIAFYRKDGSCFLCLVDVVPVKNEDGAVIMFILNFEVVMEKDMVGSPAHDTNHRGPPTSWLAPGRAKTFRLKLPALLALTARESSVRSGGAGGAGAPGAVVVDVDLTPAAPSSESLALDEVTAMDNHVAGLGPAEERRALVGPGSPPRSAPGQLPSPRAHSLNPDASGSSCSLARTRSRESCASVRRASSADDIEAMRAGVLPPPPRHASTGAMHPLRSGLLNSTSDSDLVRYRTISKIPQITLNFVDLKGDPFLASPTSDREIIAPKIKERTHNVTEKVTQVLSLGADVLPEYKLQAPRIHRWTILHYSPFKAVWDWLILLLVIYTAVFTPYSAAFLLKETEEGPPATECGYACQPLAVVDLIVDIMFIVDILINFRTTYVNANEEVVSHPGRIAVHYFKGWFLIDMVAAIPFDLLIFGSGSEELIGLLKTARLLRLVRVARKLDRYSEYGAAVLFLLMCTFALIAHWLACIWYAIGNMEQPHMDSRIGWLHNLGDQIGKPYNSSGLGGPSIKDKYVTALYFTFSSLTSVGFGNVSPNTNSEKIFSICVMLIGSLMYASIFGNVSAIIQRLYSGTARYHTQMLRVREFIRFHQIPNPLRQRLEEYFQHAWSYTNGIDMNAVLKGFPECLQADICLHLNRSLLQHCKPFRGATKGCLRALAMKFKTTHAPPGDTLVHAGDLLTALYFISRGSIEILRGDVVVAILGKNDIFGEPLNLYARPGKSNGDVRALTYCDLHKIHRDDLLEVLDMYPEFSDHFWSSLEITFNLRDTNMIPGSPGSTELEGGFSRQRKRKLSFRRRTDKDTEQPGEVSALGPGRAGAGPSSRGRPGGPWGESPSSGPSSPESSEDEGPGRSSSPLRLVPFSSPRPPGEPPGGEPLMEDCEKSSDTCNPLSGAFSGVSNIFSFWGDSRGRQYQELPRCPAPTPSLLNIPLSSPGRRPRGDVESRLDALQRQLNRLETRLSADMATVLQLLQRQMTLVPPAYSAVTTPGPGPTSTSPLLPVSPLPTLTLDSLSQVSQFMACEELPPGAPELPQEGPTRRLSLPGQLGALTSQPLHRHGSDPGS
pIC50: −log10 of the molar value.
Binary classification by pIC50, with 6 as an inclusive lower bound for 1 (yes); all other cases are 0 (no).

## Task Quick check: does COc1ccc2nccc(CCN3CCC(NCc4cnn(-c5ccccc5)n4)CC3)c2n1 [Compound 8] have pIC50 greater than or equal to 6?
## Result 1 (yes)

## Task Quick check, pIC50 >= 6? COc1ccc2nccc(CCN3CCC(NCc4cnn(-c5ccccc5)c4)CC3)c2n1 [Compound 5]
## Result 1 (yes)

## Task API: above_or_equal(metric=pIC50, cutoff=6) for item COc1ccc(CNC2CCN(CCc3ccnc4ccc(OC)nc34)CC2)cn1 [Compound 22]
## Result 0 (no)

## Task Could you please find out whether COc1ccc2nccc(CCN3CCC(NCc4cnn(-c5ccc(F)cc5)c4)CC3)c2n1 [Compound 4] has pIC50 that meets 6 or exceeds it?
## Result 1 (yes)

====

- Tested on: E. coli (QA-11.7)
- PROCEDURE_DETAILS: MIC broth microdilution, E. coli QA-11.7
- Assay type: cell-based
- COND: Escherichia coli, 20 h; multi-resistant isolate (ampicillin, azithromycin, cefotaxime, ertapenem, imipenem and others); read-out: MIC E. coli (QA-11.7)
READOUT_KIND: MIC (µg/mL)
Report the figure in µg/mL without appending any unit label.

## Task Report MIC for COc1ccc2nccc(CCN3CCC(NCc4ccc(I)cc4)CC3)c2n1 [Compound 15] please.
## Result 1

## Task Record request: MIC value, item COc1ccc2nccc(CCN3CCC(NCc4cnn(C(C)C)c4)CC3)c2n1 [Compound 9]
## Result 2

## Task Find the recorded MIC belonging to COc1ccc2nccc(CCN3CCC(NCc4ccc(OC(F)F)c(O)c4)CC3)c2n1 [Compound 20] and report it.
## Result 2

## Task I would be grateful if you could share the reported MIC for COc1ccc2nccc(CCN3CCC(NCc4ccccc4)CC3)c2n1 [Compound 11] .
## Result 32

====

Please respond with reported MIC for every item in the list.
- Test system: C. jejuni RDK 135 (ATCC 33560)
- PROCEDURE_DETAILS: MIC broth microdilution, C. jejuni
- Format: cell-based
- COND: Campylobacter jejuni, ATCC33560; read-out: MIC C. jejuni RDK 135 (ATCC 33560)
Expressed in µg/mL, but write only the number.

## Task # query: MIC | item COc1ccc2nccc(CCN3CCC(NCc4ccc(N(C)C)cc4)CC3)c2n1 [Compound 18] | system: C. jejuni RDK 135 (ATCC 33560)
## Result 4

## Task Give MIC (C. jejuni RDK 135 (ATCC 33560)) of the following compound: COc1ccc2nccc(CCN3CCC(NCc4ccc(C(F)(F)F)nc4)CC3)c2n1 [Compound 21]
## Result 128

## Task # returns recorded MIC (system: C. jejuni RDK 135 (ATCC 33560)) for COc1ccc2nccc(CCN3CCC(NCc4cnn(C(C)C)c4)CC3)c2n1 [Compound 9]
## Result 0.5

## Task Any idea what MIC came out for COc1ccc2nccc(CCN3CCC(NCc4cnn(-c5ccccc5)n4)CC3)c2n1 [Compound 8] on C. jejuni RDK 135 (ATCC 33560)?
## Result 4

## Task Requested read-out MIC, target or system C. jejuni RDK 135 (ATCC 33560), entry COc1ccc2nccc(CCN3CCC(NCc4ccc(Br)cc4)CC3)c2n1 [Compound 14]
## Result 0.5
